Collected SPOT peptide array binding signal intensity values appear next to each entry.
Molecular target: ScHse1
Assay: SPOT peptide array binding signal intensity (averaged, normalized) (arbitrary units (background-subtracted, floor 0; scale differs between SH3 domains)); higher = stronger binding of the SH3 domain to the peptide

Known results for binders:
* KFIPSRPAPKPPSSA | ≤ 0
* RAPPPVPKKPSSRIA | ≤ 0

As a next step, examine the binder that follows.
Task: Could you share which SPOT peptide array binding signal intensity value was measured for APERAVPILPPRNNV ?
Output: ≤ 0
